Recorded values, source ChEMBL document CHEMBL3352013.

# assay-overview: Selectivity ratio, ratio of IC50 for human CDK2/cyclin A to IC50 for Trypanosoma brucei GSK3
measured-property: Ratio IC50
Note: the reply should be a number with no unit written.

* COc1cccc(OC)c1C(=O)Nc1c[nH]nc1C(=O)NC1CCCCCC1 | 2000
* COc1cccc(OC)c1C(=O)Nc1c[nH]nc1C(=O)Nc1ccccc1 | 720

Below: the item to evaluate.
Recorded Ratio IC50 (compound CO[C@H]1CC[C@H](NC(=O)c2n[nH]cc2NC(=O)Cc2c(Cl)cccc2Cl)CC1 ): 1.3

====

# assay-overview: Selectivity ratio, ratio of IC50 for human CDK2/cyclin A to IC50 for Trypanosoma brucei GSK3
measured-property: Ratio IC50
Keep it simple and answer with nothing but the number.

• COc1cccc(OC)c1C(=O)Nc1c[nH]nc1C(=O)Nc1ccncc1 = 330
• COc1cccc(OC)c1C(=O)Nc1c[nH]nc1C(=O)N[C@H]1CC[C@H](O)CC1 = 800
• COc1cccc(OC)c1C(=O)Nc1c[nH]nc1C(=O)NC1CCC(C)CC1 (mixture of isomers) = 4800
• CO[C@H]1CC[C@H](NC(=O)c2n[nH]cc2NC(=O)Cc2ccccc2F)CC1 = 2.1
• COc1cccc(OC)c1C(=O)Nc1c[nH]nc1C(=O)NC1CCN(C(=O)OC(C)(C)C)CC1 = 780
• CCCCCNC(=O)c1n[nH]cc1NC(=O)c1c(OC)cccc1OC = 4800
• CCc1ccccc1C(=O)Nc1c[nH]nc1C(=O)N[C@H]1CC[C@H](OC)CC1 = 1.3
• COc1cccc(OC)c1C(=O)Nc1c[nH]nc1C(=O)NC1CCC1 = 300

# next molecule below
Reported Ratio IC50 for COc1ccccc1C(=O)Nc1c[nH]nc1C(=O)N[C@H]1CC[C@H](OC)CC1 was 25
